Provenance of the data: patent US11993598B2

MEASURED_ON: EGFR T790M (Homo sapiens, UniProt P00533, T790M)
Sequence (P00533 25-1210 T790M): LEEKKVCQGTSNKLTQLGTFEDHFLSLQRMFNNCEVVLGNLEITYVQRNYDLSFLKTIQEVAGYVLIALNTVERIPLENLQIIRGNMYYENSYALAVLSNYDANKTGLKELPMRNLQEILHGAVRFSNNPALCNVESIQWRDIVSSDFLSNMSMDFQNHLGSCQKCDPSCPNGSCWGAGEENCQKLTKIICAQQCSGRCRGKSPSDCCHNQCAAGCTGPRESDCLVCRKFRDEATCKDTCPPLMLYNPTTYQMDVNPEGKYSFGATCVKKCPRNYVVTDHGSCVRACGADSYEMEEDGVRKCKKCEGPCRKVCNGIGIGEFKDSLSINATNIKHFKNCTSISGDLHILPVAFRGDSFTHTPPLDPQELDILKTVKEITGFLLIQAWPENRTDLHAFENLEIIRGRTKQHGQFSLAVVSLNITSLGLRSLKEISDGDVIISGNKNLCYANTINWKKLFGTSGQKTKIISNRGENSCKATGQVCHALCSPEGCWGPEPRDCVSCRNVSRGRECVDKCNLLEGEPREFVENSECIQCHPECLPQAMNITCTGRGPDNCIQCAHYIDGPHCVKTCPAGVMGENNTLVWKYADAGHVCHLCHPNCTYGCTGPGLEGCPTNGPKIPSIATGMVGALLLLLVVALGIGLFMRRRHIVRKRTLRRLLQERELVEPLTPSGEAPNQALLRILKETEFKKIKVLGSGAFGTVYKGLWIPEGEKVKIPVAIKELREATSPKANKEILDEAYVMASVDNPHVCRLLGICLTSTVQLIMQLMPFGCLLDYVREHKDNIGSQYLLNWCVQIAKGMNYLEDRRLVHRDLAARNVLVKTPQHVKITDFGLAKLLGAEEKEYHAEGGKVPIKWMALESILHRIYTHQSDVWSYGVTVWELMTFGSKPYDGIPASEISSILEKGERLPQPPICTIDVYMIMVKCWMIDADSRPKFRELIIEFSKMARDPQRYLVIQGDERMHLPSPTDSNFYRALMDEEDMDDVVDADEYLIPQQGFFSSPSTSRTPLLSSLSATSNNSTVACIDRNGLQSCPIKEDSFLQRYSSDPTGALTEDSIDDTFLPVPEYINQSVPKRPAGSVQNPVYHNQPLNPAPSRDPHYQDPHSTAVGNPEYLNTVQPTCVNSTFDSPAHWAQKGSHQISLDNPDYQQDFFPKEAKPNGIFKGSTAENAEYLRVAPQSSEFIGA
ASSAY_REMARKS: Mutant EGFR biochemical activity assay (HTRF)
Procedure: Assay 1: Wild-type EGFR, HER2 and HER4, and mutant EGFR biochemical activity assay 10 nL of Serially diluted compounds were transferred to assay plates using the labcyte Echo 550, and 5 uL of 2× enzymes in assay buffer were subsequently dispensed. The assay plate was covered with an adhesive plate seal, and briefly spinned for 30 s at 1000 g. 5 uL of 2× TK-substrate-biotin and ATP mixed in assay buffer were added. IC50 was calculated and analyzed using a 4 parametric logistic model.
READOUT: IC50 (nM)

{"columns": ["LINE_NOTATION", "MEASURED_ON", "ENDPOINT_UNIT", "VALUE_REPORTED"],
 "data": [
  ["C=CC(=O)Nc1cc(Nc2nccc(-n3c(=O)n4c5c(cccc53)CCC4)n2)c(OCC(F)(F)F)nc1N(C)CCN(C)C", "EGFR T790M (Homo sapiens, UniProt P00533, T790M)", "nM", 0.0656],
  ["C=CC(=O)Nc1cc(Nc2nccc(-n3c(=O)n4c5c(cc(F)cc53)CCC4)n2)c(OC)cc1N(C)CCN(C)C", "EGFR T790M (Homo sapiens, UniProt P00533, T790M)", "nM", 0.0526],
  ["C=CC(=O)Nc1cc(Nc2nccc(-n3c(=O)n4c5c(cccc53)CCC4)n2)c(OC)cc1N(C)CCN(C)C", "EGFR T790M (Homo sapiens, UniProt P00533, T790M)", "nM", 0.0509],
  ["C=CC(=O)Nc1cc(Nc2nccc(-n3c(=O)n4c5c(cccc53)CCC4)n2)c(OC)nc1N(C)CCN(C)C", "EGFR T790M (Homo sapiens, UniProt P00533, T790M)", "nM", 0.0573]
]}

---

Quick list: IC50 per entry.
MEASURED_ON: EGFR Del19 (Homo sapiens, UniProt P00533)
Sequence (P00533 with tags, fused parts or gaps DEL746-750): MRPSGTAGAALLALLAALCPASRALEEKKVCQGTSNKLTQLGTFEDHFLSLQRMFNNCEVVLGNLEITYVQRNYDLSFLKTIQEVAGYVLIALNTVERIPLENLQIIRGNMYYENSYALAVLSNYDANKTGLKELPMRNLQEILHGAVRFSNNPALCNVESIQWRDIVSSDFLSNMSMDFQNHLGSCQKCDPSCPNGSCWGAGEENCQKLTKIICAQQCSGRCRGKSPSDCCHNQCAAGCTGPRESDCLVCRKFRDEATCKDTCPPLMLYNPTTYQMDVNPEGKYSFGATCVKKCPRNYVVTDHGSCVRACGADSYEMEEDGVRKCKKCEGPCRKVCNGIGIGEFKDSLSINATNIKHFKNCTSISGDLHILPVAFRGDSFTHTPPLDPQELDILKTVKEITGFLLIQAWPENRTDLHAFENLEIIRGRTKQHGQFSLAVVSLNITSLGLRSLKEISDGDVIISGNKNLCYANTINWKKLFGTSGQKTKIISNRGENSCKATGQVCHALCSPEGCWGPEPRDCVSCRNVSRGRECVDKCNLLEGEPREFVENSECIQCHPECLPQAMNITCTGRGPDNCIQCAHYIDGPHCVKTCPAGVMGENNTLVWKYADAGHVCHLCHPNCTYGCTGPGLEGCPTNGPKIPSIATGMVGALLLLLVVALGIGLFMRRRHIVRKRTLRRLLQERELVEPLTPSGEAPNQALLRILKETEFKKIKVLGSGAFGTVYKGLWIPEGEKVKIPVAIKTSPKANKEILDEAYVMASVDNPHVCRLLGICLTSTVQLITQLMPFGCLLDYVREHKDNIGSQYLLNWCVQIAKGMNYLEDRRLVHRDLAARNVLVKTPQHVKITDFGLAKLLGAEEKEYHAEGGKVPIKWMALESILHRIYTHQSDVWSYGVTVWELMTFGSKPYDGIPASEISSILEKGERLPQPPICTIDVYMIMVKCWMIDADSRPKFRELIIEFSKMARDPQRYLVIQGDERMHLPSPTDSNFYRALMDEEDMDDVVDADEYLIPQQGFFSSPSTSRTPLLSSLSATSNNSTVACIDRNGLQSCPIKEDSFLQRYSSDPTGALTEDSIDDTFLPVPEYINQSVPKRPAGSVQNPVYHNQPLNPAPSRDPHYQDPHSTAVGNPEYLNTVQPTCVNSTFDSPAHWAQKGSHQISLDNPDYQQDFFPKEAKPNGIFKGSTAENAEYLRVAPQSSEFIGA
ASSAY_REMARKS: Mutant EGFR biochemical activity assay (HTRF)
READOUT: IC50 (nM)

{"columns": ["LINE_NOTATION", "ENDPOINT_UNIT", "VALUE_REPORTED"],
 "data": [
  ["C=CC(=O)Nc1cc(Nc2nccc(-n3c(=O)n4c5c(cccc53)CCC4)n2)c(OCC(F)(F)F)nc1N(C)CCN(C)C", "nM", 0.14],
  ["C=CC(=O)Nc1cc(Nc2nccc(-n3c(=O)n4c5c(cccc53)CCC4)n2)c(OC)nc1N(C)CCN(C)C", "nM", 0.233],
  ["C=CC(=O)Nc1cc(Nc2nccc(-n3c(=O)n4c5c(cc(F)cc53)CCC4)n2)c(OC)cc1N(C)CCN(C)C", "nM", 0.175],
  ["C=CC(=O)Nc1cc(Nc2nccc(-n3c(=O)n4c5c(cccc53)CCC4)n2)c(OC)cc1N(C)CCN(C)C", "nM", 0.107]
]}

---

MEASURED_ON: EGFR T790M/L858R (Homo sapiens, UniProt P00533, L858R/T790M)
ASSAY_REMARKS: Mutant EGFR biochemical activity assay (HTRF)
Listed compounds paired with reported IC50
READOUT: IC50 (nM)

{"columns": ["COMPOUND", "MEASURED_ON", "VALUE_REPORTED"],
 "data": [
  ["C=CC(=O)Nc1cc(Nc2nccc(-n3c(=O)n4c5c(cccc53)CCC4)n2)c(OCC(F)(F)F)nc1N(C)CCN(C)C [Compound 6]", "EGFR T790M/L858R (Homo sapiens, UniProt P00533, L858R/T790M)", 0.0865],
  ["C=CC(=O)Nc1cc(Nc2nccc(-n3c(=O)n4c5c(cccc53)CCC4)n2)c(OC)cc1N(C)CCN(C)C [Compound 2]", "EGFR T790M/L858R (Homo sapiens, UniProt P00533, L858R/T790M)", 0.0724],
  ["C=CC(=O)Nc1cc(Nc2nccc(-n3c(=O)n4c5c(cccc53)CCC4)n2)c(OC)nc1N(C)CCN(C)C [Compound 4]", "EGFR T790M/L858R (Homo sapiens, UniProt P00533, L858R/T790M)", 0.0841],
  ["C=CC(=O)Nc1cc(Nc2nccc(-n3c(=O)n4c5c(cc(F)cc53)CCC4)n2)c(OC)cc1N(C)CCN(C)C [Compound 1]", "EGFR T790M/L858R (Homo sapiens, UniProt P00533, L858R/T790M)", 0.0639]
]}

---

MEASURED_ON: EGFR D770GY (Homo sapiens, UniProt P00533, D770Y/INS769G)
Sequence (P00533 with tags, fused parts or gaps INS769G/D770Y limits assumed): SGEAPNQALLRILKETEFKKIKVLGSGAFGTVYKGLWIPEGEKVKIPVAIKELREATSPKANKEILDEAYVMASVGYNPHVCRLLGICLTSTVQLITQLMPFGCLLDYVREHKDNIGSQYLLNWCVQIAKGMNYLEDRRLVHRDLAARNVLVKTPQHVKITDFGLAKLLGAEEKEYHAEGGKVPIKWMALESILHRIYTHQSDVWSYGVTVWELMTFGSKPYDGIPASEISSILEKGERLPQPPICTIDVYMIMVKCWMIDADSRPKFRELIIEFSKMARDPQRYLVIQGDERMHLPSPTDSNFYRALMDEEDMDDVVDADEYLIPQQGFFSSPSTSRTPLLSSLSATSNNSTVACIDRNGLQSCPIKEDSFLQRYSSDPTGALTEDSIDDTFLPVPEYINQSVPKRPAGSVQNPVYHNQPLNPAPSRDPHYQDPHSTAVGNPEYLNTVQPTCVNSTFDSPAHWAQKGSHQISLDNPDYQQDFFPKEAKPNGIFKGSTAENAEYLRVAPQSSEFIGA
ASSAY_REMARKS: Mutant EGFR biochemical activity assay (HTRF)
Below, each entry is listed alongside its reported IC50.

{"columns": ["LINE_NOTATION", "IC50 [nM]"],
 "data": [
  ["C=CC(=O)Nc1cc(Nc2nccc(-n3c(=O)n4c5c(cccc53)CCC4)n2)c(OC)cc1N(C)CCN(C)C", 0.276],
  ["C=CC(=O)Nc1cc(Nc2nccc(-n3c(=O)n4c5c(cccc53)CCC4)n2)c(OCC(F)(F)F)nc1N(C)CCN(C)C", 0.0489],
  ["C=CC(=O)Nc1cc(Nc2nccc(-n3c(=O)n4c5c(cccc53)CCC4)n2)c(OC)nc1N(C)CCN(C)C", 0.13],
  ["C=CC(=O)Nc1cc(Nc2nccc(-n3c(=O)n4c5c(cc(F)cc53)CCC4)n2)c(OC)cc1N(C)CCN(C)C", 0.0649]
]}

---

MEASURED_ON: EGFR D770-N771insNPG (Homo sapiens, UniProt P00533, INS770NPG)
Sequence (P00533 with tags, fused parts or gaps INS770NPG limits assumed): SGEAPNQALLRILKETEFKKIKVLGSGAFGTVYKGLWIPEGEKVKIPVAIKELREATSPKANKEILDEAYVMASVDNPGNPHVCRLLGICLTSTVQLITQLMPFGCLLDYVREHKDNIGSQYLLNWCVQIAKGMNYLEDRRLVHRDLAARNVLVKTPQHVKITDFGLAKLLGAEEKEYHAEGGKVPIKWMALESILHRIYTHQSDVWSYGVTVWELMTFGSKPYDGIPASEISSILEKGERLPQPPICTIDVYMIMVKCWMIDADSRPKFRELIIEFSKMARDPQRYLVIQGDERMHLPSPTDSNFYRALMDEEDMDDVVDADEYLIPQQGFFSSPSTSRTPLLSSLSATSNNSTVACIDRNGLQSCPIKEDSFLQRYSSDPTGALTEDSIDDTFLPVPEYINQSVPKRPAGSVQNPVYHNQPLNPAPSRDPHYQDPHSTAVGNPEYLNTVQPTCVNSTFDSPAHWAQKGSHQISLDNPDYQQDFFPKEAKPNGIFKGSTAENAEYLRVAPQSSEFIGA
ASSAY_REMARKS: Mutant EGFR biochemical activity assay (HTRF)
Known IC50 of a selection of compounds

{"columns": ["COMPOUND", "IC50, nM"],
 "data": [
  ["C=CC(=O)Nc1cc(Nc2nccc(-n3c(=O)n4c5c(cc(F)cc53)CCC4)n2)c(OC)cc1N(C)CCN(C)C [Compound 1]", 0.063],
  ["C=CC(=O)Nc1cc(Nc2nccc(-n3c(=O)n4c5c(cccc53)CCC4)n2)c(OC)cc1N(C)CCN(C)C [Compound 2]", 0.0815],
  ["C=CC(=O)Nc1cc(Nc2nccc(-n3c(=O)n4c5c(cccc53)CCC4)n2)c(OC)nc1N(C)CCN(C)C [Compound 4]", 0.0554],
  ["C=CC(=O)Nc1cc(Nc2nccc(-n3c(=O)n4c5c(cccc53)CCC4)n2)c(OCC(F)(F)F)nc1N(C)CCN(C)C [Compound 6]", 0.0688]
]}

---

IC50 values, listed per item
MEASURED_ON: EGFR-WT (Homo sapiens, UniProt P00533)
ASSAY_REMARKS: Wild-type EGFR biochemical activity assay (HTRF)

{"columns": ["LINE_NOTATION", "IC50 (nM)"],
 "data": [
  ["C=CC(=O)Nc1cc(Nc2nccc(-n3c(=O)n4c5c(cc(F)cc53)CCC4)n2)c(OC)cc1N(C)CCN(C)C", 1.56],
  ["C=CC(=O)Nc1cc(Nc2nccc(-n3c(=O)n4c5c(cccc53)CCC4)n2)c(OC)cc1N(C)CCN(C)C", 1.23],
  ["C=CC(=O)Nc1cc(Nc2nccc(-n3c(=O)n4c5c(cccc53)CCC4)n2)c(OCC(F)(F)F)nc1N(C)CCN(C)C", 0.451],
  ["C=CC(=O)Nc1cc(Nc2nccc(-n3c(=O)n4c5c(cccc53)CCC4)n2)c(OC)nc1N(C)CCN(C)C", 0.552]
]}

---

MEASURED_ON: UniProt:Q15303
Sequence (Q15303 26-1308): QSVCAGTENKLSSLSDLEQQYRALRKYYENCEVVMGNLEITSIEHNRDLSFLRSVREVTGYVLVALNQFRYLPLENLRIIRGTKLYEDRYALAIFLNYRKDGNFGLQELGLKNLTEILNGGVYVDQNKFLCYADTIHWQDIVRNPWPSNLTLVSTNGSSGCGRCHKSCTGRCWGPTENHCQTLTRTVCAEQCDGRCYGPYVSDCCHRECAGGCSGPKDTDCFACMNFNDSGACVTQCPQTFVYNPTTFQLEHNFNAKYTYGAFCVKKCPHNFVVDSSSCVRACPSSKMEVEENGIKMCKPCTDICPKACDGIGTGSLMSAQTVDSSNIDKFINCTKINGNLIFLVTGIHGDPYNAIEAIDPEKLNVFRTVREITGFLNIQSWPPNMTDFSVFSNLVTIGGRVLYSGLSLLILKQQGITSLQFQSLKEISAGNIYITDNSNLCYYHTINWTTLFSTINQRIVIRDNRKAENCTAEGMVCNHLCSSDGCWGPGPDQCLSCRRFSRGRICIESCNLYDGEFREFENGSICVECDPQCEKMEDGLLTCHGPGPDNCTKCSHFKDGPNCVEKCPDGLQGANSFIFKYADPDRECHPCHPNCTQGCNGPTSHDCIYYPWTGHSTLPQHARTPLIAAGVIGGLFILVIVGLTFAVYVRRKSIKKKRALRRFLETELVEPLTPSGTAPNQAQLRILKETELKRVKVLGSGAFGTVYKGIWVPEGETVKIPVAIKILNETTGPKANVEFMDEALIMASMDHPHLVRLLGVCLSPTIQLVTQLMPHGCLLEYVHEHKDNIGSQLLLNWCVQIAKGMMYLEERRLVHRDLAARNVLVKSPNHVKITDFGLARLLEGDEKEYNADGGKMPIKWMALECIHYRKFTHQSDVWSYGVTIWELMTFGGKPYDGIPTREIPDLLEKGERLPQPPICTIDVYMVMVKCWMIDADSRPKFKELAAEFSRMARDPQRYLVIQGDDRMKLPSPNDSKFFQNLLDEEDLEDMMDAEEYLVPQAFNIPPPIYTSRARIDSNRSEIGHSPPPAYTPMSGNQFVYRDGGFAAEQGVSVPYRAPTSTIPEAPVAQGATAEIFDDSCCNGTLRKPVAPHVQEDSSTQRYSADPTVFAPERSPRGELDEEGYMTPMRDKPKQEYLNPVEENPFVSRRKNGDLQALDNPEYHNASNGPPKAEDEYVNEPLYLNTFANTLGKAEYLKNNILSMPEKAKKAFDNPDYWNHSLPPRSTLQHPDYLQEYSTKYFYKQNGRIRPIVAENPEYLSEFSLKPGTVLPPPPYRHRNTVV
ASSAY_REMARKS: HER4 biochemical activity assay (HTRF)
The entries below come with measured IC50 values attached.
READOUT: IC50

{"columns": ["MOLECULE", "VALUE_REPORTED"],
 "data": [
  ["C=CC(=O)Nc1cc(Nc2nccc(-n3c(=O)n4c5c(cc(F)cc53)CCC4)n2)c(OC)cc1N(C)CCN(C)C [Compound 1]", "0.769 nM"],
  ["C=CC(=O)Nc1cc(Nc2nccc(-n3c(=O)n4c5c(cccc53)CCC4)n2)c(OCC(F)(F)F)nc1N(C)CCN(C)C [Compound 6]", "0.725 nM"],
  ["C=CC(=O)Nc1cc(Nc2nccc(-n3c(=O)n4c5c(cccc53)CCC4)n2)c(OC)nc1N(C)CCN(C)C [Compound 4]", "0.694 nM"],
  ["C=CC(=O)Nc1cc(Nc2nccc(-n3c(=O)n4c5c(cccc53)CCC4)n2)c(OC)cc1N(C)CCN(C)C [Compound 2]", "1.35 nM"]
]}

---

Listing of recorded IC50 by entry.
MEASURED_ON: HER2 (Homo sapiens, UniProt P04626)
ASSAY_REMARKS: HER2 biochemical activity assay (HTRF)

{"columns": ["LINE_NOTATION", "IC50 [nM]"],
 "data": [
  ["C=CC(=O)Nc1cc(Nc2nccc(-n3c(=O)n4c5c(cccc53)CCC4)n2)c(OCC(F)(F)F)nc1N(C)CCN(C)C", 25.1],
  ["C=CC(=O)Nc1cc(Nc2nccc(-n3c(=O)n4c5c(cccc53)CCC4)n2)c(OC)cc1N(C)CCN(C)C", 47],
  ["C=CC(=O)Nc1cc(Nc2nccc(-n3c(=O)n4c5c(cc(F)cc53)CCC4)n2)c(OC)cc1N(C)CCN(C)C", 35.1],
  ["C=CC(=O)Nc1cc(Nc2nccc(-n3c(=O)n4c5c(cccc53)CCC4)n2)c(OC)nc1N(C)CCN(C)C", 34.6]
]}
